Just for reference, PubChem BioAssay AID2060508 is where these values come from.

I'd be grateful if you could share measured viability, T/C for these entries.
Tested on: 454973-116-R2-J3-PDC spheroids, viability, % test/control
assayRemarks: Anticancer human tumor 454973-116-R2-J3-PDC patient-derived pancreatic carcinoma cell line growth inhibition [GQUAD]
runParameters: second compound 10 µM; first compound 1 µM; stronger effect = lower value; spheroids with HUVEC and MSC
One number for each entry, in %.

Observe how each entry below is paired with its result.
COc1cccc2c1C(=O)c1c(O)c3c(c(O)c1C2=O)CC(O)(C(=O)CO)CC3OC1CC(N)C(O)C(C)O1 (stereo not given) + Cc1[nH]c2ccc(F)cc2c1-c1nc2c3cccnc3c3ncccc3c2[nH]1    27.1
CC(=O)O[C@H]1C(=O)[C@@]2(C)[C@H]([C@H](OC(=O)c3ccccc3)[C@]3(O)C[C@H](OC(=O)[C@H](O)[C@@H](NC(=O)c4ccccc4)c4ccccc4)C(C)=C1C3(C)C)[C@]1(OC(C)=O)CO[C@@H]1C[C@@H]2O + Cc1cnc(CNC(=O)c2c(=O)c3ccc(N4CCCN(C)CC4)nc3n3c2sc2ccccc23)cn1    0.17
COc1ccc([C@@H](O)c2cc(-c3ncnc4cc(N5CCOCC5)ccc34)c(F)cc2Cl)nn1 + Cc1[nH]c2ccc(F)cc2c1-c1nc2c3cccnc3c3ncccc3c2[nH]1    72.2
COc1cccc2c1C(=O)c1c(O)c3c(c(O)c1C2=O)CC(O)(C(=O)CO)CC3OC1CC(N)C(O)C(C)O1 (stereo not given) + Cc1cnc(CNC(=O)c2c(=O)c3ccc(N4CCCN(C)CC4)nc3n3c2sc2ccccc23)cn1    27.7
CC(=O)O[C@H]1C(=O)[C@@]2(C)[C@H]([C@H](OC(=O)c3ccccc3)[C@]3(O)C[C@H](OC(=O)[C@H](O)[C@@H](NC(=O)c4ccccc4)c4ccccc4)C(C)=C1C3(C)C)[C@]1(OC(C)=O)CO[C@@H]1C[C@@H]2O + Cc1[nH]c2ccc(F)cc2c1-c1nc2c3cccnc3c3ncccc3c2[nH]1    7.79
COc1ccc([C@@H](O)c2cc(-c3ncnc4cc(N5CCOCC5)ccc34)c(F)cc2Cl)nn1 + CN(C)c1ccc(Nc2c3ccc(NC(=O)CCN4CCCC4)cc3nc3cc(NC(=O)CCN4CCCC4)ccc23)cc1    61.4
C=CCn1c(=O)c2cnc(Nc3ccc(N4CCN(C)CC4)cc3)nc2n1-c1cccc(C(C)(C)O)n1 + CN(C)c1ccc(Nc2c3ccc(NC(=O)CCN4CCCC4)cc3nc3cc(NC(=O)CCN4CCCC4)ccc23)cc1    25.7
COc1ncnc(C2CC2)c1-c1ncc2cnn(Cc3ccc(-c4nc(C(F)(F)F)cn4C(C)C)cc3)c2n1 + Cc1cnc(CNC(=O)c2c(=O)c3ccc(N4CCCN(C)CC4)nc3n3c2sc2ccccc23)cn1    40.6

For every record below, what is its viability, T/C?
1. C=CCn1c(=O)c2cnc(Nc3ccc(N4CCN(C)CC4)cc3)nc2n1-c1cccc(C(C)(C)O)n1 + Cc1cnc(CNC(=O)c2c(=O)c3ccc(N4CCCN(C)CC4)nc3n3c2sc2ccccc23)cn1
2. Nc1ccn(C2OC(CO)C(O)C2(F)F)c(=O)n1 (stereo not given) + Cc1cnc(CNC(=O)c2c(=O)c3ccc(N4CCCN(C)CC4)nc3n3c2sc2ccccc23)cn1
3. C=CC(=O)N1CCN(c2nc(=O)n(-c3c(C)ccnc3C(C)C)c3nc(-c4c(O)cccc4F)c(F)cc23)C(C)C1 (stereo not given) + CN(C)c1ccc(Nc2c3ccc(NC(=O)CCN4CCCC4)cc3nc3cc(NC(=O)CCN4CCCC4)ccc23)cc1
4. O=C(c1cc(Cc2n[nH]c(=O)c3ccccc23)ccc1F)N1CCN(C(=O)C2CC2)CC1 + CN(C)c1ccc(Nc2c3ccc(NC(=O)CCN4CCCC4)cc3nc3cc(NC(=O)CCN4CCCC4)ccc23)cc1
5. C=CC(=O)N1CCN(c2nc(=O)n(-c3c(C)ccnc3C(C)C)c3nc(-c4c(O)cccc4F)c(F)cc23)C(C)C1 (stereo not given) + Cc1[nH]c2ccc(F)cc2c1-c1nc2c3cccnc3c3ncccc3c2[nH]1

Completion:
0.26
7.48
68.5
67.4
92.8

###

System: 454973-116-R2-J3-PDC spheroids, viability, % test/control
assayRemarks: Anticancer human tumor 454973-116-R2-J3-PDC cell line growth inhibition [GQUAD];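 note: spheroids exposed to compounds for seven days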
runParameters: curve of first compound; second compound 0.0316 µM; spheroids with HUVEC and MSC
measurementType: log10 of IC50 (log10 of the value in nM)
Reminder: these figures are log10 of reported IC50, in nM before transformation.

Study these solved cases before continuing.
COc1cc(C2c3cc4c(cc3C(OC3OC5COC(C)OC5C(O)C3O)C3COC(=O)C23)OCO4)cc(OC)c1O (configuration not stated) + Cc1cnc(CNC(=O)c2c(=O)c3ccc(N4CCCN(C)CC4)nc3n3c2sc2ccccc23)cn1    2.81
COc1ccc([C@@H](O)c2cc(-c3ncnc4cc(N5CCOCC5)ccc34)c(F)cc2Cl)nn1 + Cc1cnc(CNC(=O)c2c(=O)c3ccc(N4CCCN(C)CC4)nc3n3c2sc2ccccc23)cn1    2.91
O=C(NO)c1cnc(N2CCN(S(=O)(=O)c3ccc4ccccc4c3)CC2)nc1 + Cc1cnc(CNC(=O)c2c(=O)c3ccc(N4CCCN(C)CC4)nc3n3c2sc2ccccc23)cn1    2.30
CC[C@@]1(O)C(=O)OCc2c1cc1n(c2=O)Cc2cc3c(CN(C)C)c(O)ccc3nc2-1 + Cc1cnc(CNC(=O)c2c(=O)c3ccc(N4CCCN(C)CC4)nc3n3c2sc2ccccc23)cn1    1.47
Cc1[nH]c2ccccc2c1CCNCc1ccc(/C=C/C(=O)NO)cc1 + CN(C)c1ccc(Nc2c3ccc(NC(=O)CCN4CCCC4)cc3nc3cc(NC(=O)CCN4CCCC4)ccc23)cc1    1.86

Please look at the following molecule next.
// returns log10 of IC50 for COc1cc(C2c3cc4c(cc3C(OC3OC5COC(C)OC5C(O)C3O)C3COC(=O)C23)OCO4)cc(OC)c1O (configuration not stated) + CN(C)c1ccc(Nc2c3ccc(NC(=O)CCN4CCCC4)cc3nc3cc(NC(=O)CCN4CCCC4)ccc23)cc1 with 454973-116-R2-J3-PDC spheroids, viability, % test/control; value = 3.09

###

Test system: 454973-116-R2-J3-PDC spheroids, viability, % test/control
assayRemarks: Anticancer human tumor 454973-116-R2-J3-PDC cell line growth inhibition [GQUAD];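 note: spheroids exposed to compounds for seven days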;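 for viability, T/C: 100% = DMSO vehicle control viability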
runParameters: second compound 0.1 µM; first compound 0.316 µM; stronger effect = lower value; spheroids with HUVEC and MSC
measurementType: viability, T/C

Some entries whose results are on file:
CC(C)n1c(=O)n(C)c2cnc3cc(F)c(-c4ccc(OCCCN5CCCCC5)nc4)cc3c21 + Cc1cnc(CNC(=O)c2c(=O)c3ccc(N4CCCN(C)CC4)nc3n3c2sc2ccccc23)cn1    36.5%
CC(C)(O)C1CCC(Nc2ccc3ncc(-c4cccc(C(F)(F)F)c4)n3n2)CC1 (stereo unspecified) + Cc1[nH]c2ccc(F)cc2c1-c1nc2c3cccnc3c3ncccc3c2[nH]1    92.1%
COc1cc(C2c3cc4c(cc3C(OC3OC5COC(C)OC5C(O)C3O)C3COC(=O)C23)OCO4)cc(OC)c1O (stereo unspecified) + Cc1[nH]c2ccc(F)cc2c1-c1nc2c3cccnc3c3ncccc3c2[nH]1    88%
O=C(c1cc(Cc2n[nH]c(=O)c3ccccc23)ccc1F)N1CCN(C(=O)C2CC2)CC1 + CN(C)c1ccc(Nc2c3ccc(NC(=O)CCN4CCCC4)cc3nc3cc(NC(=O)CCN4CCCC4)ccc23)cc1    99.3%
COc1cccc2c1C(=O)c1c(O)c3c(c(O)c1C2=O)CC(O)(C(=O)CO)CC3OC1CC(N)C(O)C(C)O1 (stereo unspecified) + Cc1[nH]c2ccc(F)cc2c1-c1nc2c3cccnc3c3ncccc3c2[nH]1    27.2%
CC1COCCN1c1cc(-c2ccnn2C)c2ccnc(-c3ccn[nH]3)c2n1 (stereo unspecified) + CN(C)c1ccc(Nc2c3ccc(NC(=O)CCN4CCCC4)cc3nc3cc(NC(=O)CCN4CCCC4)ccc23)cc1    32.9%
COc1cc(C2c3cc4c(cc3C(OC3OC5COC(C)OC5C(O)C3O)C3COC(=O)C23)OCO4)cc(OC)c1O (stereo unspecified) + CN(C)c1ccc(Nc2c3ccc(NC(=O)CCN4CCCC4)cc3nc3cc(NC(=O)CCN4CCCC4)ccc23)cc1    89.1%
CC1COCCN1c1cc(C2(O)CC3CCC(C2)O3)c2cnn(-c3ccn[nH]3)c2n1 (stereo unspecified) + Cc1cnc(CNC(=O)c2c(=O)c3ccc(N4CCCN(C)CC4)nc3n3c2sc2ccccc23)cn1    19.1%
CCc1c2c(nc3ccc(O)cc13)-c1cc3c(c(=O)n1C2)COC(=O)[C@]3(O)CC + Cc1cnc(CNC(=O)c2c(=O)c3ccc(N4CCCN(C)CC4)nc3n3c2sc2ccccc23)cn1    4.8%
C#Cc1c(F)ccc2cc(O)cc(-c3ncc4c(N5CC6CCC(C5)N6)nc(OCC56CCCN5CC(F)C6)nc4c3F)c12 (stereo unspecified) + Cc1cnc(CNC(=O)c2c(=O)c3ccc(N4CCCN(C)CC4)nc3n3c2sc2ccccc23)cn1    24%

For every record below, what is its viability, T/C?
1. O=c1[nH]cc(F)c(=O)[nH]1 + Cc1[nH]c2ccc(F)cc2c1-c1nc2c3cccnc3c3ncccc3c2[nH]1
2. CC(=O)O[C@H]1C(=O)[C@@]2(C)[C@H]([C@H](OC(=O)c3ccccc3)[C@]3(O)C[C@H](OC(=O)[C@H](O)[C@@H](NC(=O)c4ccccc4)c4ccccc4)C(C)=C1C3(C)C)[C@]1(OC(C)=O)CO[C@@H]1C[C@@H]2O + Cc1cnc(CNC(=O)c2c(=O)c3ccc(N4CCCN(C)CC4)nc3n3c2sc2ccccc23)cn1
3. CC1COCCN1c1cc(-c2ccnn2C)c2ccnc(-c3ccn[nH]3)c2n1 (stereo unspecified) + Cc1[nH]c2ccc(F)cc2c1-c1nc2c3cccnc3c3ncccc3c2[nH]1
4. CC1COCCN1c1cc(-c2ccnn2C)c2ccnc(-c3ccn[nH]3)c2n1 (stereo unspecified) + Cc1cnc(CNC(=O)c2c(=O)c3ccc(N4CCCN(C)CC4)nc3n3c2sc2ccccc23)cn1
5. CC1COCCN1c1cc(C2(S(C)(=N)=O)CC2)nc(-c2ccnc3[nH]ccc23)n1 (stereo unspecified) + Cc1cnc(CNC(=O)c2c(=O)c3ccc(N4CCCN(C)CC4)nc3n3c2sc2ccccc23)cn1
6. COc1cccc2c1C(=O)c1c(O)c3c(c(O)c1C2=O)CC(O)(C(=O)CO)CC3OC1CC(N)C(O)C(C)O1 (stereo unspecified) + Cc1cnc(CNC(=O)c2c(=O)c3ccc(N4CCCN(C)CC4)nc3n3c2sc2ccccc23)cn1

Completion:
1: 109%; 2: 9.56%; 3: 30.6%; 4: 18.9%; 5: 74.2%; 6: 43.4%
